Reported shrunken log2 fold change values follow for various sequences
test system: Escherichia coli TOP10; experiment: shrunken log2 fold change of peptide-encoding DNA abundance (4.5 h post-induction vs induction); higher = less antimicrobial activity (less host growth inhibition); details: time post-induction: 4.5 h; library: site-saturation at positions 5, 18, 19, 20;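 further: peptides expressed intracellularly from a pBAD plasmid library in pooled LB shake-flask culture, induced with 0.3% L-arabinose, DNA abundance read by NGS, three biological replicates, DESeq2 with apeglm shrinkage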

# example entries with known answers
RRIRCRPPRLPRPRPRPNYEPRP    -0.442
RRIRFRPPRLPRPRPRPKPVPRP    0.727
RRIRPRPPRLPRPRPRPYCTPRP    0.164

Please look at this sequence and report its shrunken log2 fold change: RRIRSRPPRLPRPRPRPPPWPRP
0.651

For the sequence RRIRKRPPRLPRPRPRPWCTPRP , give its measured shrunken log2 fold change value.
-0.0115

# return recorded shrunken log2 fold change for input RRIRLRPPRLPRPRPRPTSHPRP
-0.0914

Please look at this sequence and report its shrunken log2 fold change: RRIRARPPRLPRPRPRPMAGPRP
0.163
